# credit: paper PMC10683025

Assay: Plasma protein binding by equilibrium dialysis
Assay type: in vitro ADME
Conditions: human, human plasma
Listed here: items and their measured remaining at 6 h, 5 μM.
Measurement Name: remaining at 6 h, 5 μM

INSERT INTO assay_data (molecule, result) VALUES
  ('COc1cc2ncnc(Nc3ccc(F)c(Cl)c3)c2cc1OCCCN1CCOCC1 [Gefitinib (1), Gefitinib, reference compound]', '98.8%'),
  ('COc1cc2ncnc(Nc3ccc(F)c(Cl)c3)c2cc1OCCON1CCOCC1 [Compound 6]', '99.5%'),
  ('COc1cc2ncnc(Nc3cccc(Cl)c3F)c2cc1OCCON1CCN(C)CC1 [Compound 9]', '102%'),
  ('COc1cc2ncnc(Nc3cccc(Cl)c3F)c2cc1OCCON1CCOCC1 [Compound 7]', '99.4%');
